molecular target: hNAMPT protein (Homo sapiens (Human), UniProt P43490); test: NAMPT enzyme assay (TR-FRET/HTRF, BodiPY ligand, anti 6His-Tb); type: binding; conditions: compound concentration 1 μM; read-out: Percent Inhibition
Sequence (P43490 whole entry): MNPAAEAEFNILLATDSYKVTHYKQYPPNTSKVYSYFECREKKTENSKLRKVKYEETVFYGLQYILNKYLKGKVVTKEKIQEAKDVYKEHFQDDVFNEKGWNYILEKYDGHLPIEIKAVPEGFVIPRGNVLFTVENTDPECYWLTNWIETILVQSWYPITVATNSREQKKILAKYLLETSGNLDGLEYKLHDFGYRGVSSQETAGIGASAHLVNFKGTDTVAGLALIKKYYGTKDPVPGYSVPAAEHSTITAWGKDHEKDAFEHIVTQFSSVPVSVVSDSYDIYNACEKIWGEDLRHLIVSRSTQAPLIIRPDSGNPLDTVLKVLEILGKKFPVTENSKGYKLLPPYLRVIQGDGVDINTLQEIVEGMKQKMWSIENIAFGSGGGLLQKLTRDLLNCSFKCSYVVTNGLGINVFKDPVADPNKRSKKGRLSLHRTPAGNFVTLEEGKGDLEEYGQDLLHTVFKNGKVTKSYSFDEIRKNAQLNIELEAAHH
endpoint-label: inhibition at 1 µM (%)
Numbers only, in %.

Worked cases, answers included:
O=C(NCCCn1ccnc1)c1ccc2nc(-c3ccccc3Cl)c(-c3ccccc3Cl)nc2c1 | 19
O=C(NCCCc1ncc[nH]1)c1ccc2nc(-c3ccc(F)cc3)c(-c3ccccc3F)nc2c1 | 86
Cc1cncc(-c2nc3cc(C(=O)NCCCc4ncc[nH]4)ccc3nc2-c2ccc(F)cc2)c1 | 74

We next turn to a different molecule, shown below.
For "CC(C)Oc1nc2ccc(C(=O)NCCCc3ccc(N)nc3)cc2nc1-c1ccc(F)cc1" , what is its reported inhibition at 1 µM?
46

Origin of values: patent US10144742B2
